The measured values listed here are drawn from ChEMBL document CHEMBL4138140.

- System: Carboxypeptidase A1 (Homo sapiens) (UniProt P15085)
- Sequence (P15085 whole entry): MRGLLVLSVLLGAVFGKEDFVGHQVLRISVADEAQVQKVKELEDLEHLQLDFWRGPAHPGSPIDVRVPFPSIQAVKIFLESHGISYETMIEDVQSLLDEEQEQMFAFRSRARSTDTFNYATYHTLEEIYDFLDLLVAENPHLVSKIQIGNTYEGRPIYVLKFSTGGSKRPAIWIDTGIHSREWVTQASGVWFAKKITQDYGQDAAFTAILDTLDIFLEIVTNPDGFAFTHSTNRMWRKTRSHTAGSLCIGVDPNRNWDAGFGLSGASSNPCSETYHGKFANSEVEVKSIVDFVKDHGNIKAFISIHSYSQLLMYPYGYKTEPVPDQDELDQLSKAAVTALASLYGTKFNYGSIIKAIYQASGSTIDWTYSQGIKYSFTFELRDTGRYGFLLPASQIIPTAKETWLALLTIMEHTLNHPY
- Run description: Irreversible inhibition of recombinant human carboxypeptidase A1 expressed in Pichia pastoris using N-(4-methoxyphenylazoformyl)-Phe-OH as substrate measured for 600 secs by double reciprocal plot analysis

# Molecule, Kinact
records = [
    ("O=C(O)[C@@H](Cc1ccc(I)cc1)[C@@H]1CO1 (racemic)", "0.6 min⁻¹"),
    ("CC(C)C[C@H](C(=O)O)[C@@H]1CS1 (racemic)", "0.52 min⁻¹"),
    ("O=C(O)[C@@H](Cc1ccc(F)cc1)[C@H]1CS1 (racemic)", "0.47 min⁻¹"),
    ("O=C(O)[C@@H](Cc1ccc(F)cc1)[C@@H]1CO1 (racemic)", "0.71 min⁻¹"),
    ("CCC[C@H](C(=O)O)[C@@H]1CS1 (racemic)", "0.82 min⁻¹"),
    ("O=C(O)[C@@H](Cc1ccc(I)cc1)[C@H]1CS1 (racemic)", "0.69 min⁻¹"),
]

###

- System: Carboxypeptidase A1 (Bos taurus)
- Sequence (P00730 whole entry): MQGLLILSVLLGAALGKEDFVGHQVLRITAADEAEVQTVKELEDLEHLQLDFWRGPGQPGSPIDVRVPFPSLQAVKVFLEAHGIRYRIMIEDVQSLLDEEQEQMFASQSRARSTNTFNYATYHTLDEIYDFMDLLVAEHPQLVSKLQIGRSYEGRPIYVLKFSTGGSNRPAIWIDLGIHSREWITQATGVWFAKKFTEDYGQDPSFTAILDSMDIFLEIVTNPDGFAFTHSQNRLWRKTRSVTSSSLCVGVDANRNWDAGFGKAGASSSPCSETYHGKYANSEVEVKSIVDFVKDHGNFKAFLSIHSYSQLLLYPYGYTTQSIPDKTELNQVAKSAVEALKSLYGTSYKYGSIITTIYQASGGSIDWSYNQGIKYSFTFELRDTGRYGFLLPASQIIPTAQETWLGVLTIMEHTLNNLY
- Run description: Inhibition of bovine carboxypeptidase A using N-(4-methoxyphenylazoformyl)-Phe-OH as substrate preincubated for 3 hrs followed by susbtrate addition measured for 15 mins at 30 secs interval
pIC50: −log10 of the molar value.

# Molecule, pIC50
data = [
    ("CC(C)C[C@H](C(=O)O)[C@H]1CS1 (racemic)", 4.50),
    ("O=C(O)[C@@H](Cc1ccc(I)cc1)[C@@H]1CO1 (racemic)", 5.98),
    ("O=C(O)[C@@H](CCc1ccccc1)[C@@H]1CS1 (racemic)", 4.78),
    ("O=C(O)[C@@H](Cc1ccc(I)cc1)[C@H]1CS1 (racemic)", 6.02),
    ("CCC[C@H](C(=O)O)[C@@H]1CO1 (racemic)", 5.95),
    ("O=C(O)[C@@H](CC1CC1)[C@@H]1CO1 (racemic)", 4.95),
    ("O=C(O)[C@@H](CCc1ccccc1)[C@@H]1CO1 (racemic)", 5.08),
    ("O=C(O)[C@@H](Cc1ccc(F)cc1)[C@H]1CS1 (racemic)", 6.33),
    ("CC(C)C[C@H](C(=O)O)[C@H]1CO1 (racemic)", 6.24),
    ("CCC[C@H](C(=O)O)[C@@H]1CS1 (racemic)", 6.22),
]
